biological target: Beta-lactamase TEM-3 (Escherichia coli); assay: Inhibitory activity against Escherichia coli TEM-3 Beta-lactamase
parameter: pIC50
On this scale, pIC50 is minus log10 of a concentration expressed in M (mol/L).

Inquiry: So what's the measured pIC50 for this one? `Cn1nnnc1S[C@@H]1CN(C(=O)OCc2ccccc2)[C@@H]2C(=O)N(S(=O)(=O)O)[C@@H]21`
Reply text: 7.46

Inquiry: Reported pIC50, molecule `O=C(CNc1ccc(O)cc1)N1CC[C@@H]2[C@H]1C(=O)N2S(=O)(=O)O` : ____
Reply text: 4.10

Inquiry: # lookup: pIC50 of `NC(=O)/C=C1\CN(C(=O)OCc2ccccc2)[C@@H]2C(=O)N(S(=O)(=O)O)[C@H]12`
Reply text: 7.51

Inquiry: Data request, read-out pIC50, for `NC(=O)Nc1ccc(NC(=O)N2CC[C@@H]3[C@H]2C(=O)N3S(=O)(=O)O)cc1`
Reply text: 4.00

---

target: Beta-lactamase TEM-3 (Escherichia coli); test: Inhibitory activity against Escherichia coli TEM-3 Beta-lactamase
Consider the following compounds; for each one, report its IC50.

Inquiry: // lookup IC50 for `O=C(NC1CCNCC1)N1CC[C@@H]2[C@H]1C(=O)N2S(=O)(=O)O`
Reply text: > 100 µM

Inquiry: Reported IC50 for `O=C(Nc1ccc(O)cc1)N1CC[C@@H]2[C@H]1C(=O)N2S(=O)(=O)O` : what is it?
Reply text: > 100 µM

Inquiry: Name the reported IC50 value associated with the compound `NC(=O)c1ccc(NC(=O)N2CC[C@@H]3[C@H]2C(=O)N3S(=O)(=O)O)cc1`
Reply text: > 100 µM

Inquiry: Any idea what its IC50 is? The compound is `CC(C)(C)OC(=O)N1CCC[C@@H]2[C@H]1C(=O)N2S(=O)(=O)O`
Reply text: > 100 µM

Inquiry: Item `Cn1cnnc1SCC(=O)N1CC[C@@H]2[C@H]1C(=O)N2S(=O)(=O)O` has what recorded IC50?
Reply text: > 100 µM

Inquiry: # IC50 lookup, item `Cc1nn(C)c(SCC(=O)N2CC[C@@H]3[C@H]2C(=O)N3S(=O)(=O)O)nc1=O`
Reply text: > 100 µM
